# EXPERIMENTAL TARGET: Adenosine receptor A1 (Homo sapiens) (UniProt P30542)
# Sequence (whole entry): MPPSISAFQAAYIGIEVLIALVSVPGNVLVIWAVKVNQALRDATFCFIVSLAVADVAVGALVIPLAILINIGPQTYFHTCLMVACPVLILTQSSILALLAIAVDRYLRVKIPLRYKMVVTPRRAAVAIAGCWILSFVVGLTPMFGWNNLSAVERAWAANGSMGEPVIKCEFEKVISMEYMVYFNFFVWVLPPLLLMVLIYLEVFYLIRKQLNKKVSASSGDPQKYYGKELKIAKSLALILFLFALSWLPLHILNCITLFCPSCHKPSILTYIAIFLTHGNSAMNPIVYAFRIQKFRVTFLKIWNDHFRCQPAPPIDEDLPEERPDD
# ASSAY TEXT: Displacement of [3H]DPCPX from human adenosine A1 receptor expressed in CHO cells at 10 uM
# Format: cell-based
The entries below come with measured inhibition values attached.
Please reply with the bare figure in % and do not write the unit itself.

The compound CCC(=O)N1Cc2nc(-c3ccccc3)nn2-c2cc(Cl)ccc21 showed inhibition equal to 39

The compound C#CCOC(=O)N1Cc2nc(-c3ccc(OC)cc3)nn2-c2cc(C)ccc21 showed inhibition equal to 49

The compound COc1ccc(-c2nc(N(C(=O)c3ccccc3)C(=O)c3ccccc3)n(-c3ccccc3)n2)cc1 showed inhibition equal to 55

The compound COc1ccc(-c2nc3n(n2)-c2cc(C)ccc2N(C(=O)OCc2ccccc2)C3)cc1 showed inhibition equal to 45

The compound COc1ccc(-c2nc(N(C(C)=O)C(C)=O)n(-c3ccccc3)n2)cc1 showed inhibition equal to 26

The compound COc1ccc(-c2nc(NC(=O)Nc3ccccc3)n(-c3ccccc3)n2)cc1 showed inhibition equal to 1

The compound COC(=O)N1Cc2nc(-c3ccccc3)nn2-c2ccccc21 showed inhibition equal to 34

The compound CCOC(=O)Nc1ccc(C)cc1-n1cnc(-c2ccc(OC)cc2)n1 showed inhibition equal to 6

The compound COc1ccc(-c2nc3n(n2)-c2cc(C)ccc2N(C(=O)Cc2ccccc2)C3)cc1 showed inhibition equal to 39

The compound COc1ccc(-c2nc(NC(=O)c3ccccc3)n(-c3ccccc3)n2)cc1 showed inhibition equal to 25

The compound COc1ccc(-c2ncn(-c3cc(C)ccc3NC(=O)OCc3ccccc3)n2)cc1 showed inhibition equal to 2

The compound COc1ccc(-c2ncn(-c3cc(C)ccc3NC(=O)Cc3ccccc3)n2)cc1 showed inhibition equal to 44
